Quick list: abundance fitness per entry.
B1: Arginine-glutamic acid dipeptide repeats protein, residues 502 to 543; numbered along this chain, Q9P2R6 (parent)
chain: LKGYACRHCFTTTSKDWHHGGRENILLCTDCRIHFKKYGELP

- Variants of: B1
- TEST DESCRIPTION: abundance fitness (aPCA) (normalised: wild type 0, dead -1); higher = more abundant; growth selection in yeast, the domain comes from the species named
- REPORTED CONDITIONS: Homo sapiens
Just the number, please.

Here are 10 variants together with their reported answers.
VARIANT ID	RESULT VALUE
I33H	0.017
E40H	-0.11
E40Y	-0.143
L26M	0.023
G21I	-0.517
G3L	-0.205
I25E	-0.048
D16G	-0.342
K2A	-0.116
Y38V	0.022

Would you kindly share the measured abundance fitness for T13E ? 0.014

// returns reported abundance fitness for input C6W -1.28

Quick one: abundance fitness for H34Q ? -0.098

What measured abundance fitness goes with T13V ? -0.125

// query abundance fitness value for entry N24R -0.146

Tell me the measured abundance fitness of H18K , please. 0.055

Request the reported abundance fitness associated with K15P -0.095

Quick check: abundance fitness of K15Q ? -0.049

Give the measured abundance fitness of C31P . -1.07

GET /values?readout=abundance fitness&item= L27E -0.318

Please look up its abundance fitness: N24L -0.191

Requested read-out: abundance fitness. Entry: G3A -0.047

So what's the measured abundance fitness for this one? G21A -0.142

Which abundance fitness is listed for H19T ? 0.095
